- TGT: HLA-A*02:12
- TEST_SUMMARY: IEDB peptide-MHC binding, purified MHC/competitive/fluorescence; filed as Kd, often an IC50 or EC50 that approximates it; bounds were set here for any values at or beyond the usual limits of such assays
- RUN_PARAMETERS: source organism: Vibrio vulnificus CMCP6
MEASURED_PROPERTY: Kd (nM)
// note: answer is a bare numeric in nM

Give Kd for `WLAGFEPSE` tested on HLA-A*02:12.
453

###

- TGT: HLA-A*02:01
- TEST_SUMMARY: IEDB peptide-MHC binding, purified MHC/competitive/radioactivity; bounds were set here for any values at or beyond the usual limits of such assays
- RUN_PARAMETERS: source organism: Influenza A virus (A/Puerto Rico/8/1934(H1N1))
MEASURED_PROPERTY: IC50 (µM)
Write it as a number; the unit µM goes unstated.

Return IC50 for the following sequence: `IMDKNIILKA`
43

###

- TGT: HLA-B*39:01
- TEST_SUMMARY: IEDB peptide-MHC binding, purified MHC/competitive/fluorescence; filed as Kd, often an IC50 or EC50 that approximates it; bounds were set here for any values at or beyond the usual limits of such assays
- RUN_PARAMETERS: source organism: Cryptosporidium parvum Iowa II
pKd: −log10 of the molar value.
MEASURED_PROPERTY: pKd

Item `RGRKPIFRK` : provide pKd
≤ 4.70

###

- TGT: HLA-B*07:02
- TEST_SUMMARY: IEDB peptide-MHC binding, purified MHC/direct/fluorescence; filed as Kd, often an IC50 or EC50 that approximates it; bounds were set here for any values at or beyond the usual limits of such assays
- RUN_PARAMETERS: source organism: West Nile virus strain PTRoxo
MEASURED_PROPERTY: Kd

State, in one line, measured Kd of `MTRGLLGSY`
≥ 20 µM

###

- TGT: HLA-A*24:03
- TEST_SUMMARY: IEDB peptide-MHC binding, purified MHC/competitive/fluorescence; filed as Kd, often an IC50 or EC50 that approximates it; bounds were set here for any values at or beyond the usual limits of such assays
- RUN_PARAMETERS: source organism: Vibrio parahaemolyticus AQ3810
pKd: −log10 of the molar value.
MEASURED_PROPERTY: pKd

Give a short answer stating reported pKd for `KVGYFQHGA` .
≤ 4.70

###

- TGT: HLA-A*11:01
- TEST_SUMMARY: IEDB peptide-MHC binding, purified MHC/competitive/fluorescence; bounds were set here for any values at or beyond the usual limits of such assays
- RUN_PARAMETERS: source organism: West Nile virus
MEASURED_PROPERTY: IC50

Let me know recorded IC50 for `AVVVNPSVK` , thanks.
2250 nM

###

- TGT: HLA-A*24:02
- TEST_SUMMARY: IEDB peptide-MHC binding, purified MHC/competitive/fluorescence; bounds were set here for any values at or beyond the usual limits of such assays
- RUN_PARAMETERS: source organism: Variola virus
Overview of reported IC50 across a group of sequences:
Dear colleague, please return just the value in nM, with no unit written.

As a guide, the following entries are already answered.
   biosequence          tgt  measured_property  measured_result
0    LEDDRERLK  HLA-A*24:02               IC50             2280
1    ARKHHTKID  HLA-A*24:02               IC50               25

Now look at this entry.
Return reported IC50. Input sequence: `DQIGDIIIA`
790

###

- TGT: HLA-A*11:01
- TEST_SUMMARY: IEDB peptide-MHC binding, purified MHC/competitive/fluorescence; bounds were set here for any values at or beyond the usual limits of such assays
- RUN_PARAMETERS: source organism: Sudan ebolavirus
MEASURED_PROPERTY: IC50

>>> print(df.to_string())
   biosequence  measured_result
0    HTPQFLFQL         ≥ 166 µM

Return the recorded IC50 value; entry: `ATSYLEYEI`
≥ 81.4 µM

Look up and report measured IC50 for this entry: `TFLQSPPIR`
≥ 119 µM

Please give the documented IC50 of `MQISTIGIR`
2.56 µM

###

In this section, each of the sequences is paired with its reported Kd.
- TGT: HLA-B*40:01
- TEST_SUMMARY: IEDB peptide-MHC binding, purified MHC/direct/fluorescence; filed as Kd, often an IC50 or EC50 that approximates it; bounds were set here for any values at or beyond the usual limits of such assays
- RUN_PARAMETERS: source organism: Coxiella burnetii

Answered examples (2):
>>> print(df.to_string())
   biosequence  measured_result
0    EIYRTLYGL          ≥ 20 µM
1    MTFPVSLEY          ≥ 20 µM

Next sequence, please.
Look up and report measured Kd for this entry: `AISRLRTQK`
≥ 20 µM

###

- TGT: HLA-A*01:01
- TEST_SUMMARY: IEDB peptide-MHC binding, purified MHC/direct/fluorescence; filed as Kd, often an IC50 or EC50 that approximates it; bounds were set here for any values at or beyond the usual limits of such assays
- RUN_PARAMETERS: source organism: Vibrio parahaemolyticus
MEASURED_PROPERTY: pKd
Note on pKd: it is the negative log10 of concentration, concentration in mol/L.

Respond only with pKd recorded for `MLDQFGVSY`
7.68

###

- TGT: HLA-A*02:01
- TEST_SUMMARY: IEDB peptide-MHC binding, purified MHC/direct/fluorescence; filed as Kd, often an IC50 or EC50 that approximates it; bounds were set here for any values at or beyond the usual limits of such assays
- RUN_PARAMETERS: source organism: Vibrio parahaemolyticus
# reported Kd; entries follow

>>> df
   biosequence  measured_result
0    MLDQFGVSY          ≥ 20 µM

Now for the sequence whose Kd we want.
Answer briefly: Kd recorded on HLA-A*02:01 for `AFDWPELEF`
≥ 20 µM

###

- TGT: HLA-A*32:07
- TEST_SUMMARY: IEDB peptide-MHC binding, purified MHC/competitive/fluorescence; filed as Kd, often an IC50 or EC50 that approximates it; bounds were set here for any values at or beyond the usual limits of such assays
- RUN_PARAMETERS: source organism: Bacillus cereus G9241
MEASURED_PROPERTY: Kd (nM)
A number alone suffices; assume nM.

Annotate the sequence `YYKKTFSAL` with its measured Kd.
29

###

- TGT: HLA-B*46:01
- TEST_SUMMARY: IEDB peptide-MHC binding, purified MHC/competitive/fluorescence; filed as Kd, often an IC50 or EC50 that approximates it; bounds were set here for any values at or beyond the usual limits of such assays
- RUN_PARAMETERS: source organism: Francisella tularensis subsp. tularensis FSC198
MEASURED_PROPERTY: pKd
By convention, pKd is the negative base-10 log of a molar concentration.

Report value: pKd, system: HLA-B*46:01, sequence: `YIGGTTQAF`
5.35

###

Listing of entries alongside the reported Kd.
- TGT: HLA-A*02:16
- TEST_SUMMARY: IEDB peptide-MHC binding, purified MHC/direct/fluorescence; filed as Kd, often an IC50 or EC50 that approximates it; bounds were set here for any values at or beyond the usual limits of such assays
- RUN_PARAMETERS: source organism: Ravn virus - Ravn, Kenya, 1987

>>> df
   biosequence  measured_property  measured_result
0    YSGNIVHRY                 Kd          ≥ 20 µM

Supply reported Kd belonging to this sequence: `PQVLGGLSF`
≥ 20 µM

###

- TGT: HLA-A*03:01
- TEST_SUMMARY: IEDB peptide-MHC binding, purified MHC/competitive/radioactivity; filed as Kd, often an IC50 or EC50 that approximates it; bounds were set here for any values at or beyond the usual limits of such assays
- RUN_PARAMETERS: source organism: Triticum aestivum
MEASURED_PROPERTY: pKd
# pKd = -log10(concentration in molar units)

In one line, give reported pKd of the entry `VVLQQHNIVH` .
5.69

###

- TGT: HLA-A*68:23
- TEST_SUMMARY: IEDB peptide-MHC binding, purified MHC/competitive/fluorescence; filed as Kd, often an IC50 or EC50 that approximates it; bounds were set here for any values at or beyond the usual limits of such assays
- RUN_PARAMETERS: source organism: Coxiella burnetii Dugway 5J108-111
pKd: −log10 of the molar value.
MEASURED_PROPERTY: pKd

Report its pKd with HLA-A*68:23 as the test system: `MTFPVSLEY`
≥ 10.00

###

- TGT: HLA-A*03:01
- TEST_SUMMARY: IEDB peptide-MHC binding, purified MHC/competitive/fluorescence; filed as Kd, often an IC50 or EC50 that approximates it; bounds were set here for any values at or beyond the usual limits of such assays
- RUN_PARAMETERS: source organism: Listeria monocytogenes serotype 4b str. H7858
MEASURED_PROPERTY: Kd

Using known records, supply Kd for `ITWPRTRHW`
≥ 20 µM
